Parameter pIC50: see the listing below.
Experiment Notes: Inhibition of oligonucleotide [32P]-labelled 5'-AGATTTCTAGGAATTCAA probe binding to STAT5 homodimer in mouse NIH3T3 nuclear extract preincubated for 30 mins followed by MGFe probe addition by EMSA analysis
pIC50: −log10 of the molar value.

- Smiles Str: "O=C(O)c1ccc(N(Cc2ccc(C3CCCCC3)cc2)C(=O)[C@H]2CCN2S(=O)(=O)c2c(F)c(F)c(F)c(F)c2F)c(F)c1"
  pIC50: 4.76
- Smiles Str: "O=C(O)c1ccc(N(Cc2ccc(C3CCCCC3)cc2)C(=O)[C@H]2CCN2S(=O)(=O)c2c(F)c(F)c(F)c(F)c2F)cc1O"
  pIC50: 5.03

---

Recorded pEC50, one value per entry.
System: MCF-10A
Experiment Notes: Cytotoxicity against human MCF-10A cells assessed as reduction in cell viability incubated for 72 hrs by CyQuant assay
Format: cell-based
pEC50: −log10 of the molar value.

- Smiles Str: "O=C([C@H]1CCN1S(=O)(=O)c1c(F)c(F)c(F)c(F)c1F)N(Cc1ccc(C2CCCCC2)cn1)c1ccc2c(=O)[nH]ccc2c1"
  pEC50: 5.57
- Smiles Str: "O=C1OCc2cc(N(Cc3ccc(C4CCCCC4)cn3)C(=O)[C@H]3CCN3S(=O)(=O)c3c(F)c(F)c(F)c(F)c3F)ccc21"
  pEC50: 5.34
- Smiles Str: "COC(=O)c1ccc(N(Cc2cnc(C3CCCCC3)cn2)C(=O)[C@H]2CCN2S(=O)(=O)c2c(F)c(F)c(F)c(F)c2F)cc1O"
  pEC50: 5.42
- Smiles Str: "COC(=O)c1ccc(N(Cc2cnc(C3CCCCC3)cn2)C(=O)[C@H]2CCN2S(=O)(=O)c2c(F)c(F)c(F)c(F)c2F)c(F)c1"
  pEC50: 5.40
- Smiles Str: "O=C1NC(=O)c2cc(N(Cc3ccc(C4CCCCC4)cn3)C(=O)[C@H]3CCN3S(=O)(=O)c3c(F)c(F)c(F)c(F)c3F)ccc21"
  pEC50: 5.09
- Smiles Str: "O=C(NO)c1ccc(N(Cc2ccc(C3CCCC3)cc2)C(=O)[C@H]2CCN2S(=O)(=O)c2c(F)c(F)c(F)c(F)c2F)cc1"
  pEC50: 5.14
- Smiles Str: "O=C(NO)c1ccc(N(Cc2ccc(C3CCCCC3)cc2)C(=O)[C@H]2CCN2S(=O)(=O)c2c(F)c(F)c(F)c(F)c2F)cc1O"
  pEC50: 5.12

---

Tested On: Signal transducer and activator of transcription 3 (Mus musculus)
Sequence (P42227 whole entry, the tested form may be a part): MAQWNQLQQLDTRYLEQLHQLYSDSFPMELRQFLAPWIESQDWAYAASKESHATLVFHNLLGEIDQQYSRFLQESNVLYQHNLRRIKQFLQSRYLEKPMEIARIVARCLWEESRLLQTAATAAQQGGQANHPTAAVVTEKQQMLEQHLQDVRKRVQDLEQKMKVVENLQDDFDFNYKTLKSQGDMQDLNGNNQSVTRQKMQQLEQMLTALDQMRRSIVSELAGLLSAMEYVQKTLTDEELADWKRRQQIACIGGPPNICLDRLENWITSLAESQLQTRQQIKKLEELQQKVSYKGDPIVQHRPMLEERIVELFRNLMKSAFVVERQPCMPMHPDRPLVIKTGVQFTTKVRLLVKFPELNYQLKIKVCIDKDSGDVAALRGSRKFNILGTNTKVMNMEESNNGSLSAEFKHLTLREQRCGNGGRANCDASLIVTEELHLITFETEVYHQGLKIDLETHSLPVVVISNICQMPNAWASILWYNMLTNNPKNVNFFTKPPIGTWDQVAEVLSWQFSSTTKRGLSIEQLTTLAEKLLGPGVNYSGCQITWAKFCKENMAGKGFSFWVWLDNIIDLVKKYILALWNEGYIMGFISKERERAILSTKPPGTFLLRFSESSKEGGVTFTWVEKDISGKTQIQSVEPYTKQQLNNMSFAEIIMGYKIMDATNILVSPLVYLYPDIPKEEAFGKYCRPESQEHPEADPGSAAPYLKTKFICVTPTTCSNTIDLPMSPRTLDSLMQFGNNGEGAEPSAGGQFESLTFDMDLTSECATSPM
Experiment Notes: Inhibition of oligonucleotide [32P]-labelled 5'-AGCITCATTTCCCGTAAATCCCTA probe binding to STAT3 SH2 domain (unknown origin) preincubated for 30 mins followed by hSIE probe addition by EMSA analysis
Catalogue of IC50 values
Readout Name: IC50

- Smiles Str: "NC(=O)c1ccc(N(Cc2ccc(C3CCCCC3)cn2)C(=O)[C@H]2CCN2S(=O)(=O)c2c(F)c(F)c(F)c(F)c2F)c(F)c1"
  Tested On: "Signal transducer and activator of transcription 3 (Mus musculus)"
  Reported: "> 2000 nM"
- Smiles Str: "O=C(NO)c1ccc(N(Cc2cnc(C3CCCCC3)cn2)C(=O)[C@H]2CCN2S(=O)(=O)c2c(F)c(F)c(F)c(F)c2F)c(F)c1"
  Tested On: "Signal transducer and activator of transcription 3 (Mus musculus)"
  Reported: "> 2000 nM"

---

System: NIH3T3
Experiment Notes: Inhibition of oligonucleotide [32P]-labelled 5'-AGATTTCTAGGAATTCAA probe binding to STAT5 homodimer in mouse NIH3T3 nuclear extract at 10 uM preincubated for 30 mins followed by MGFe probe addition by EMSA analysis
The source made the active and inactive calls. The rule behind the calls is not given here.
Readout Name: inhibition

- Smiles Str: "O=C(O)c1ccc(N(Cc2ccc(C3CCCCC3)nc2)C(=O)[C@H]2CCN2S(=O)(=O)c2c(F)c(F)c(F)c(F)c2F)cc1O"
  Reported: "Active"
- Smiles Str: "O=C(NO)c1ccc(N(Cc2ccc(C3CCCCC3)cc2)C(=O)[C@H]2CCN2S(=O)(=O)c2c(F)c(F)c(F)c(F)c2F)c(F)c1"
  Reported: "Active"
- Smiles Str: "COC(=O)c1ccc(N(Cc2ccc(C3CCCCC3)cc2)C(=O)[C@H]2CCN2S(=O)(=O)c2c(F)c(F)c(F)c(F)c2F)cc1O"
  Reported: "Active"

---

# EC50 annotations
Tested on: MDA-MB-468
Experiment Notes: Antiproliferative activity against human MDA-MB-468 cells harbouring STAT3 assessed as reduction in cell viability incubated for 72 hrs by CyQuant assay
Type: functional, cell-based
Assay Setup: MDA-MB-468, 72 h
Readout Name: EC50 (nM)

- Smiles Str: "O=C([C@H]1CCN1S(=O)(=O)c1c(F)c(F)c(F)c(F)c1F)N(Cc1cnc(C2CCCCC2)cn1)c1ccc2nn[nH]c2c1"
  Reported: 2300
- Smiles Str: "CNC(=O)c1ccc(N(Cc2ccc(C3CCCCC3)cn2)C(=O)[C@H]2CCN2S(=O)(=O)c2c(F)c(F)c(F)c(F)c2F)cc1O"
  Reported: 1800
- Smiles Str: "O=C([C@H]1CCN1S(=O)(=O)c1c(F)c(F)c(F)c(F)c1F)N(Cc1cnc(C2CCCCC2)cn1)c1cc2[nH]ncc2cc1F"
  Reported: 2000

Source of measurements: ChEMBL document CHEMBL4706639
